Reference source for all entries: the supplement of paper PMC8882468

Tested on: HCI-002 (organoid from a triple-negative breast cancer xenograft)
Experiment: CTG-3D luminescence at 96 h relative to day-0 seeding control (ratio to day 0); higher = more growth / less cytotoxicity; PDxO 3D drug screen, 96 h, CTG-3D normalised to day-0 seeding control.
Conditions: 10 µM; days in culture: 209
Decision: CTG-3D luminescence at 96 h compared against 1; not below it gives True, below it gives False.

Examples from the recorded data:
{"MOLECULE": "CC(C)n1nc(-c2ccc3oc(N)nc3c2)c2c(N)ncnc21", "TARGET ENTITY": "HCI-002", "DISCRETE LABEL": "False"}
{"MOLECULE": "C[C@]12CC[C@@H]3c4ccc(O)cc4C[C@@H](CCCCCCCCC[S+]([O-])CCCC(F)(F)C(F)(F)F)[C@H]3[C@@H]1CC[C@@H]2O (stereo partly specified)", "TARGET ENTITY": "HCI-002", "DISCRETE LABEL": "True"}

// inclusive: CTG-3D luminescence at 96 h at least 1? input: `CC(C)(C(=O)NCC(F)(F)C(F)(F)F)C(=O)N[C@@H]1C(=O)Nc2ccccc2-c2ccccc21`
True

// inclusive: CTG-3D luminescence at 96 h at least 1? input: `NC1(C(=O)N[C@@H](CCO)c2ccc(Cl)cc2)CCN(c2nc[nH]c3nccc2-3)CC1`
True

// inclusive: CTG-3D luminescence at 96 h at least 1? input: `C=CCn1c(=O)c2cnc(Nc3ccc(N4CCN(C)CC4)cc3)nc2n1-c1cccc(C(C)(C)O)n1`
False

// inclusive: CTG-3D luminescence at 96 h at least 1? input: `Cc1cc(Nc2ncnc3ccc(NC4=NC(C)(C)CO4)cc23)ccc1Oc1ccn2ncnc2c1`
True
